Values compiled from paper PMC11763264.

tested on: K. pneumoniae (ATCC BAA-1705); test: microbe, parasite or virus in culture; format: cell-based, Klebsiella pneumoniae; conditions: ATCC BAA-1705, 24 h
Non-standard residues stand in square brackets, D forms with d. Residues, ends and D or L forms follow the SMILES beside them. Dip = N[C@H](C(=O)O)C(c1ccccc1)c1ccccc1
measured property: MIC (µM)

[[record]]
compound = "N=C(N)NCCC[C@H](NC(=O)[C@@H](NC(=O)[C@H](CCCNC(=N)N)NC(=O)[C@@H](NC(=O)[C@H](CCCNC(=N)N)NC(=O)[C@@H](NC(=O)[C@H](CCCNC(=N)N)NC(=O)[C@@H](NC(=O)[C@H](CCCNC(=N)N)NC(=O)[C@@H](N)Cc1c[nH]c2ccccc12)C(c1ccccc1)c1ccccc1)C(c1ccccc1)c1ccccc1)C(c1ccccc1)c1ccccc1)C(c1ccccc1)c1ccccc1)C(=O)O [((DipR)4(WR))] (H-WR[Dip]R[Dip]R[Dip]R[Dip]R-OH)"
measured_property = "MIC"
unit_of_measure = "µM"
value_reported = 25

